target: α2B Human Adrenergic Receptor (Homo sapiens, UniProt P18089); construct: expressed in transfected cells; host or cells: Y-1 cells; assay: Equilibrium competition binding, [3H] rauwolscine, membranes of transfected Y-1 cells; conditions: cloned human receptor; [3H] rauwolscine; read-out: pKi Alpha-2 B (converted)
Sequence (P18089 whole entry): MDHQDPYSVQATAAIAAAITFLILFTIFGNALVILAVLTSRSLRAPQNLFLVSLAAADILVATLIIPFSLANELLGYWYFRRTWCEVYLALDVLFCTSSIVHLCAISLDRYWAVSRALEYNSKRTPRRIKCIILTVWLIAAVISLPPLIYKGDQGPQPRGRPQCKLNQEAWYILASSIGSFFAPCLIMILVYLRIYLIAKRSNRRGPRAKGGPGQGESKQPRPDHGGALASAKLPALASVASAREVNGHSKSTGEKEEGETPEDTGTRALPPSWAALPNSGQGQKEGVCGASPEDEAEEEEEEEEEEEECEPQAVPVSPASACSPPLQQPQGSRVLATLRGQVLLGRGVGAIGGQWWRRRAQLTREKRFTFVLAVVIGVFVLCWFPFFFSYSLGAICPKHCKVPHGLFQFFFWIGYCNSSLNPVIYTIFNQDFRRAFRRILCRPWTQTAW
Binarize Ki at 40 nM; below is MET, at or above is NOT MET.

Solved entries (count: 5):
# ITEM_SMILES, ASSIGNED_CLASS
data = [
    ("NCCn1cnc2c(Br)c(NC3=NCCN3)ccc21", "NOT MET"),
    ("CC(C)n1cnc2ccc(NC3=NCCN3)c(Br)c21", "MET"),
    ("c1ccc(Cn2cnc3cc(NC4=NCCN4)ccc32)cc1", "NOT MET"),
    ("CC(C)n1cnc2ccc(NC3=NCCN3)cc21", "NOT MET"),
    ("Brc1c(NC2=NCCN2)ccc2c1ncn2Cc1ccccc1", "MET"),
]

Input CC(C)Cn1cnc2c(Br)c(NC3=NCCN3)ccc21 ; condition: Ki strictly below 40 nM. Does it hold?
NOT MET

Please check: Ki for Brc1c(NC2=NCCN2)ccc2c1ncn2C1CCCC1 , strictly under 40 nM or not?
NOT MET

Hi there! Is Ki for CCCn1cnc2ccc(NC3=NCCN3)c(Br)c21 below 40 nM, do you know?
MET
